- target_system: UniProt:P50281
Please respond with fulfilled when measured IC50 is strictly beneath 30 µM, and with not fulfilled in all other cases.

| compound | target_system | category_label |
| --- | --- | --- |
| Cc1cccn(CC2(c3cccc(-c4cccnc4)c3)NC(=O)NC2=O)c1=O (centres unmarked) | UniProt:P50281 | fulfilled |
| Cc1cccn(CC2(c3ccccc3)NC(=O)NC2=O)c1=O (centres unmarked) | UniProt:P50281 | not fulfilled |
| Cc1cccn(CC2(c3ccc(Cc4ccc(F)cc4)cc3)NC(=O)NC2=O)c1=O (centres unmarked) | UniProt:P50281 | fulfilled |
| Cc1cccn(CC2(c3ccc(OCc4ccccc4)cc3)NC(=O)NC2=O)c1=O (centres unmarked) | UniProt:P50281 | fulfilled |

---

- System: auricular oedema induced by TPA in BALB/c mice
- test_description: Inhibition test of auricular oedema induced by single application of TPA in mouse
- Type: in vivo
- cond: 1 w/v % solution applied topically to ear 1 hour before TPA, auricle thickness 6 hours after TPA, read-out: Auricular oedema inhibition rate (%)
// reported inhibition in vivo at 10000 µg/mL per item
endpoint_label: inhibition in vivo at 10000 µg/mL (%)

| compound | experimental_result |
| --- | --- |
| Cc1cccn(CC2(c3ccc(Cc4ccc(F)cc4)cc3)NC(=O)NC2=O)c1=O (centres unmarked) [Compound I-41] | 51 |
| Cc1cccn(CC2(c3ccc(F)c(F)c3)NC(=O)NC2=O)c1=O (centres unmarked) [Compound I-10] | 46 |
| Cc1cccn(CC2(c3ccc(Oc4ccc(F)cc4)cc3)NC(=O)NC2=O)c1=O (centres unmarked) [Compound I-85] | 78 |
| Cc1cccn(CC2(c3ccc(Oc4ccccc4)cc3)NC(=O)NC2=O)c1=O (centres unmarked) [Compound I-9] | 66 |
| Cc1cccn(CC2(c3ccc(OC4CCCCC4)cc3)NC(=O)NC2=O)c1=O (centres unmarked) [Compound I-37] | 78 |
| Cc1cccn(CC2(c3ccc(OC4C=CCCC4)cc3)NC(=O)NC2=O)c1=O (centres unmarked) [Compound I-36] | 58 |
| Cc1cccn(CC2(c3ccc(Oc4ccc(Cl)cc4)cc3)NC(=O)NC2=O)c1=O (centres unmarked) [Compound I-130] | 44 |
| Cc1cccn(CC2(c3ccc(OCc4ccccc4)cc3)NC(=O)NC2=O)c1=O (centres unmarked) [Compound I-64] | 50 |

---

human MMP-1 (Homo sapiens (Human)) data, read-out pIC50
Sequence (P03956 100-469): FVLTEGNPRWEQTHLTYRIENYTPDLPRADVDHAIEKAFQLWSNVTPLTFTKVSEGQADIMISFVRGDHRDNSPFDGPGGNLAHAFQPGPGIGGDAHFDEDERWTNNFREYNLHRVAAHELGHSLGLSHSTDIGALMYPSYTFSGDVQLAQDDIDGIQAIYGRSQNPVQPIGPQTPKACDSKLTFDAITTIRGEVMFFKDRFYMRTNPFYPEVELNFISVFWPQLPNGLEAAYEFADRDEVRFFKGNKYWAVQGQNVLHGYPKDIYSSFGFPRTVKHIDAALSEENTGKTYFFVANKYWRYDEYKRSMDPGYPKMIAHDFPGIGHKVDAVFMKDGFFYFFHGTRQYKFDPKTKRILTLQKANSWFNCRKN
pIC50: −log10 of the molar value.
endpoint_label: pIC50

| compound | experimental_result |
| --- | --- |
| Cc1cccn(CC2(c3ccc(OCc4ccccc4)cc3)NC(=O)NC2=O)c1=O (centres unmarked) | < 4.00 |
| COc1ccc(Cl)cc1C1(Cn2cccc(C)c2=O)NC(=O)NC1=O (centres unmarked) | < 4.00 |
| Cc1cccn(CC2(c3ccccc3)NC(=O)NC2=O)c1=O (centres unmarked) | < 4.00 |
| Cc1cccn(CC2(c3ccc(Cc4ccc(F)cc4)cc3)NC(=O)NC2=O)c1=O (centres unmarked) | 4.03 |
| Cc1cccn(CC2(c3cccc(-c4cccnc4)c3)NC(=O)NC2=O)c1=O (centres unmarked) | < 4.00 |

---

human MMP-3 (Homo sapiens (Human)) data, read-out IC50
Sequence (P08254 100-272): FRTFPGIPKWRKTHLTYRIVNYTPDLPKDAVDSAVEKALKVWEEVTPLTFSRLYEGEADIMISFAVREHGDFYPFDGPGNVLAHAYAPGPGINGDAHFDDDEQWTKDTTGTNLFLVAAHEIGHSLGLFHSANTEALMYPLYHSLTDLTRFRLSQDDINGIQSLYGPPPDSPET

| compound | target_system | IC50 |
| --- | --- | --- |
| Cc1cccn(CC2(c3ccc(Oc4ccccc4F)cc3)NC(=O)NC2=O)c1=O (stereo not shown) | human MMP-3 (Homo sapiens (Human)) | > 100 µM |
| Cc1cccn(CC2(c3cccc(-c4cccnc4)c3)NC(=O)NC2=O)c1=O (stereo not shown) | human MMP-3 (Homo sapiens (Human)) | 39 µM |
| Cc1cccn(CC2(c3ccc(Cc4ccc(F)cc4)cc3)NC(=O)NC2=O)c1=O (stereo not shown) | human MMP-3 (Homo sapiens (Human)) | > 100 µM |
| COc1ccc(Cl)cc1C1(Cn2cccc(C)c2=O)NC(=O)NC1=O (stereo not shown) | human MMP-3 (Homo sapiens (Human)) | 49 µM |

---

human MMP-13 (Homo sapiens (Human)) data, read-out IC50

| compound | IC50 |
| --- | --- |
| Cc1cccn(CC2(c3ccc(Oc4ccccc4)cc3)NC(=O)NC2=O)c1=O (stereo not drawn) [Compound I-9] | > 100 µM |
| Cc1cccn(CC2(c3ccc(OCc4ccccc4)cc3)NC(=O)NC2=O)c1=O (stereo not drawn) [Compound I-64] | > 100 µM |
| Cc1cccn(CC2(c3ccc(Oc4ccccc4F)cc3)NC(=O)NC2=O)c1=O (stereo not drawn) [Compound I-86] | > 100 µM |

---

- target_system: UniProt:P78536
- Sequence (P78536 215-824): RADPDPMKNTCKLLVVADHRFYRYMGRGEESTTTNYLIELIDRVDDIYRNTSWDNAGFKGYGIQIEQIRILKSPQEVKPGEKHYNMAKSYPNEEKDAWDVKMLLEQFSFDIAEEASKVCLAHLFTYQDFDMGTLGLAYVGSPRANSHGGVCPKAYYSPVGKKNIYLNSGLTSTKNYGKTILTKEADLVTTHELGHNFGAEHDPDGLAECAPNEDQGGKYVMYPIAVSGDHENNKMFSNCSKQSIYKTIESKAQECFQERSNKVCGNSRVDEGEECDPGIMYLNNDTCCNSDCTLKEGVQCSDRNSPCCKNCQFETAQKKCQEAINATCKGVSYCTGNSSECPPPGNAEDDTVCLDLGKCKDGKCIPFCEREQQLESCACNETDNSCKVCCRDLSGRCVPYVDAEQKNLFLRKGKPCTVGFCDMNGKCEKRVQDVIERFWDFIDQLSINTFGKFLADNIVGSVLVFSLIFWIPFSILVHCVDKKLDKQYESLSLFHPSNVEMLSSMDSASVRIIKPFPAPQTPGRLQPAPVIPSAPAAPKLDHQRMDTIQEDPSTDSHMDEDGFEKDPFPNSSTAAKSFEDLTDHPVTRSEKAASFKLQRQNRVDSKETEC
pIC50: −log10 of the molar value.
// reported pIC50 per item

| compound | pIC50 |
| --- | --- |
| Cc1cccn(CC2(c3cccc(C#CCN(C)C)c3)NC(=O)NC2=O)c1=O (centres unmarked) [Compound I-71] | > 7.00 |
| COc1cc(C2(Cn3cccc(C)c3=O)NC(=O)NC2=O)ccc1F (centres unmarked) [Compound I-12] | > 7.00 |
| COc1ccccc1C1(Cn2cccc(C)c2=O)NC(=O)NC1=O (centres unmarked) [Compound I-60] | 6.00 to 7.00 |
| O=C1NC(=O)C(Cn2cccc(F)c2=O)(c2ccc(Cc3ccccc3)cc2)N1 (centres unmarked) [Compound I-152] | > 7.00 |
| O=C1NC(=O)C(Cn2cccc(Cl)c2=O)(c2cc3ccccc3o2)N1 (centres unmarked) [Compound I-51] | > 7.00 |
| COc1ccc(-c2ccc(C3(Cn4cccc(C)c4=O)NC(=O)NC3=O)cc2)cc1 (centres unmarked) [Compound I-72] | > 7.00 |
| Cc1noc(C)c1-c1ccc(C2(Cn3cccc(C)c3=O)NC(=O)NC2=O)cc1 (centres unmarked) [Compound I-90] | > 7.00 |
| Cc1cccn(CC2(c3cccc(F)c3)NC(=O)NC2=O)c1=O (centres unmarked) [Compound I-28] | > 7.00 |
| Cc1cccn(CC2(c3cc(F)c(F)cc3F)NC(=O)NC2=O)c1=O (centres unmarked) [Compound I-29] | > 7.00 |
| CCc1cccn(CC2(c3ccc(OC)cc3)NC(=O)NC2=O)c1=O (centres unmarked) [Compound I-53] | 6.00 to 7.00 |
| Cc1cccn(CC2(c3ccc(Oc4ccc(F)cc4)c(F)c3)NC(=O)NC2=O)c1=O (centres unmarked) [Compound I-111] | > 7.00 |
| CCOc1ccc(C2(Cn3cccc(C)c3=O)NC(=O)NC2=O)cc1 (centres unmarked) [Compound I-119] | > 7.00 |
| COc1ccc(C2(Cn3ccccc3=O)NC(=O)NC2=O)cc1 (centres unmarked) [Compound I-47] | > 7.00 |
| COc1cccc(-c2ccc(C3(Cn4cccc(C)c4=O)NC(=O)NC3=O)cc2)c1 (centres unmarked) [Compound I-73] | > 7.00 |
| CCc1ccc(C2(Cn3cccc(C)c3=O)NC(=O)NC2=O)cc1 (centres unmarked) [Compound I-116] | > 7.00 |
| Cc1cccn(CC2(c3ccc(Cc4ccc(F)cc4)cc3)NC(=O)NC2=O)c1=O (centres unmarked) [Compound I-41] | > 7.00 |
| C=C(C)c1ccc(C2(Cn3cccc(C)c3=O)NC(=O)NC2=O)cc1 (centres unmarked) [Compound I-108] | > 7.00 |
| COc1ccc(C2(Cn3cccc(Br)c3=O)NC(=O)NC2=O)cc1 (centres unmarked) [Compound I-52] | > 7.00 |
| Cc1cccn(CC2(c3ccc(C#N)cc3)NC(=O)NC2=O)c1=O (centres unmarked) [Compound I-3] | > 7.00 |
| Cc1cccn(CC2(c3ccccn3)NC(=O)NC2=O)c1=O (centres unmarked) [Compound I-7] | > 7.00 |
| Cc1cccn(CC2(c3ccccc3OCc3ccccc3)NC(=O)NC2=O)c1=O (centres unmarked) [Compound I-68] | 6.00 to 7.00 |
| O=C1NC(=O)C(Cn2ccccc2=O)(c2ccccc2)N1 (centres unmarked) [Compound I-46] | > 7.00 |
| Cc1cccn(CC2(c3ccc(/C=C/C4CCCCC4)cc3)NC(=O)NC2=O)c1=O (centres unmarked) [Compound I-109] | 6.00 to 7.00 |
| O=C1NC(=O)C(Cn2cccc(F)c2=O)(c2ccc(F)cc2)N1 (centres unmarked) [Compound I-48] | > 7.00 |
| Cc1cccn(CC2(c3cccc(-c4ccccn4)c3)NC(=O)NC2=O)c1=O (centres unmarked) [Compound I-94] | > 7.00 |
| Cc1cccn(CC2(c3ccc(Oc4cccc(F)c4)cc3)NC(=O)NC2=O)c1=O (centres unmarked) [Compound I-84] | > 7.00 |
| Cc1cccn(CC2(c3cccc(Br)c3)NC(=O)NC2=O)c1=O (centres unmarked) [Compound I-57] | > 7.00 |
| COc1ccc(C2(Cn3cccc(C)c3=O)NC(=O)NC2=O)cc1F (centres unmarked) [Compound I-14] | > 7.00 |
| Cc1cccn(CC2(c3ccc4c(c3)OCO4)NC(=O)NC2=O)c1=O (centres unmarked) [Compound I-65] | > 7.00 |
| Cc1cccn(CC2(c3ccc(Oc4ccc(F)c(F)c4)cc3)NC(=O)NC2=O)c1=O (centres unmarked) [Compound I-98] | > 7.00 |
| COc1ccc(Oc2ccc(C3(Cn4cccc(C)c4=O)NC(=O)NC3=O)cc2)cc1 (centres unmarked) [Compound I-81] | > 7.00 |
| Cc1cccn(CC2(c3ccc(OC(F)F)cc3)NC(=O)NC2=O)c1=O (centres unmarked) [Compound I-78] | > 7.00 |
